target: RAD51–BRC4 (Homo sapiens, UniProt Q06609); construct: monomerised fusion: BRC repeat 4 of BRCA2 covalently linked to the N terminus of the human RAD51 ATPase domain; with Breast cancer type 2 susceptibility protein (BRC repeat 4); assay: ITC; type: binding; details: read-out: RAD51-BRC4 / K D/μM
Sequence (Q06609 97-339 limits assumed): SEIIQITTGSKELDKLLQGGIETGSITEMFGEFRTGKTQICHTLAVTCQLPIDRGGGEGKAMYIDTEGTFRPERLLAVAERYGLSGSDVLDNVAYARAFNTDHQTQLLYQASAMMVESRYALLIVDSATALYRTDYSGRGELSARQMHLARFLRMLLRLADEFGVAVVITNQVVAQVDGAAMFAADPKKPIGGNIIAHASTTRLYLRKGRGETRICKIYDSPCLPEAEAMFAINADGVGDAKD
Sequence (P51587 1517-1551 partner limits assumed): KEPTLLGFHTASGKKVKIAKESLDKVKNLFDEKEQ

COMPOUND	Kd [µM]
Nc1ncnc2c1ncn2[C@@H]1O[C@H](COP(=O)(O)OP(=O)(O)NP(=O)(O)O)[C@@H](O)[C@H]1O [AMPPNP]	12
Nc1nc2c(ncn2[C@@H]2O[C@H](COP(=O)(O)OP(=O)(O)O)[C@@H](O)[C@H]2O)c(=O)[nH]1 [GDP]	2.5
Nc1ncnc2c1ncn2[C@@H]1O[C@H](COP(=O)(O)OP(=O)(O)OP(=O)(O)O)[C@@H](O)[C@H]1O [ATP]	1
Nc1ncnc2c1ncn2[C@@H]1O[C@H](COP(=O)(O)OP(=O)(O)O)[C@@H](O)[C@H]1O [ADP]	1
Nc1nc2c(ncn2[C@@H]2O[C@H](COP(=O)(O)OP(=O)(O)OP(=O)(O)O)[C@@H](O)[C@H]2O)c(=O)[nH]1 [GTP]	5
